Each recorded value in this set is attributed to patent US20050065066A1.

assay: Chemical stability of insulin formulations by RPC (reverse phase chromatography); format: physicochemical; details: formulated human insulin, 3 Zn2+ per hexamer; 37° C.
property-name: hphob2 (hydrophobic derivatives 2, insulin dimers) (% formed/year)
One number for each entry, in % formed/year.

Recorded results for 3 compounds are shown here.
>>> reported("CCN(CC)c1ccc(/C=C2\\SC(=O)NC2=O)cc1 [Example 70]")
6.50
>>> reported("O=C(O)COc1cccc(/C=C2\\SC(=O)NC2=O)c1 [Example 461]")
7.02
>>> reported("O=C(O)/C=C/c1ccc(/C=C2\\SC(=O)NC2=O)cc1 [Example 462]")
4.68

# context switch: different compound, same hphob2 (hydrophobic derivatives 2, insulin dimers)
Give the value of hphob2 (hydrophobic derivatives 2, insulin dimers) reported for the following: O=C(O)c1cc2cc(Br)ccc2cc1O [Example 533, 7-bromo-3-hydroxy-2-naphthoic acid]
7.02

----------
test: Chemical stability of insulin formulations by RPC (reverse phase chromatography); assay type: physicochemical; settings: formulated human insulin, 3 Zn2+ per hexamer; 15° C.
Give measured hphil (hydrophilic derivatives, desamido-insulins) for each item. Keep answers brief.
Report as: number unit

Recorded results for 2 molecules are shown here.
>>> reported("O=C(O)COc1cccc(/C=C2\\SC(=O)NC2=O)c1")
"1.14 % formed/year"
>>> reported("CCN(CC)c1ccc(/C=C2\\SC(=O)NC2=O)cc1")
"1.95 % formed/year"

Can you give me hphil (hydrophilic derivatives, desamido-insulins) for all of these, one by one?
1. O=C(O)/C=C/c1ccc(/C=C2\SC(=O)NC2=O)cc1
2. O=C(O)c1cc2cc(Br)ccc2cc1O [Example 533, 7-bromo-3-hydroxy-2-naphthoic acid]

1: 1.02 % formed/year; 2: 1.80 % formed/year

----------
experiment: Chemical stability of insulin formulations by RPC (reverse phase chromatography); assay type: physicochemical; conditions: formulated human insulin, 3 Zn2+ per hexamer; 30° C.
property-name: hphob1 (hydrophobic derivatives 1) (% formed/year)
Answers are plain numbers, in % formed/year.

Recorded results for 3 compounds are shown here.
>>> reported("O=C(O)/C=C/c1ccc(/C=C2\\SC(=O)NC2=O)cc1 [Example 462]")
4.42
>>> reported("O=C(O)COc1cccc(/C=C2\\SC(=O)NC2=O)c1 [Example 461]")
7.11
>>> reported("CCN(CC)c1ccc(/C=C2\\SC(=O)NC2=O)cc1 [Example 70]")
6.94

Give the value of hphob1 (hydrophobic derivatives 1) reported for the following: O=C(O)c1cc2cc(Br)ccc2cc1O [Example 533, 7-bromo-3-hydroxy-2-naphthoic acid]
6.42

----------
assay: Chemical stability of insulin formulations by RPC (reverse phase chromatography); assay type: physicochemical; conditions: formulated human insulin, 3 Zn2+ per hexamer; 25° C.
property-name: hphob2 (hydrophobic derivatives 2, insulin dimers) (% formed/year)
Give bare numbers, in % formed/year.

Recorded results for 3 compounds are shown here.
>>> reported("O=C(O)/C=C/c1ccc(/C=C2\\SC(=O)NC2=O)cc1 [Example 462]")
0.78
>>> reported("O=C(O)COc1cccc(/C=C2\\SC(=O)NC2=O)c1 [Example 461]")
0.99
>>> reported("CCN(CC)c1ccc(/C=C2\\SC(=O)NC2=O)cc1 [Example 70]")
0.94

# context switch: different compound, same hphob2 (hydrophobic derivatives 2, insulin dimers)
Give the value of hphob2 (hydrophobic derivatives 2, insulin dimers) reported for the following: O=C(O)c1cc2cc(Br)ccc2cc1O [Example 533, 7-bromo-3-hydroxy-2-naphthoic acid]
1.46

----------
experiment: Chemical stability of insulin formulations by RPC (reverse phase chromatography); type: physicochemical; conditions: formulated human insulin, 3 Zn2+ per hexamer; 15° C.
property-name: hphob1 (hydrophobic derivatives 1) (% formed/year)
Numbers only, in % formed/year.

Recorded results for 3 compounds are shown here.
>>> reported("CCN(CC)c1ccc(/C=C2\\SC(=O)NC2=O)cc1 [Example 70]")
1.09
>>> reported("O=C(O)/C=C/c1ccc(/C=C2\\SC(=O)NC2=O)cc1 [Example 462]")
1.28
>>> reported("O=C(O)COc1cccc(/C=C2\\SC(=O)NC2=O)c1 [Example 461]")
0.67

# context switch: different compound, same hphob1 (hydrophobic derivatives 1)
Give the value of hphob1 (hydrophobic derivatives 1) reported for the following: O=C(O)c1cc2cc(Br)ccc2cc1O [Example 533, 7-bromo-3-hydroxy-2-naphthoic acid]
0.85

----------
Give measured melting point for each item. Keep answers brief.

>>> reported("CN(C)c1ccc(/C=C/C=C2\\SC(=O)NC2=O)cc1 [Example 239]")
"259 to 263 °C"
>>> reported("O=C1NC(=O)/C(=C/C(Cl)=C/c2ccccc2)S1 [Example 241]")
"251 to 254 °C"

Can you give me melting point for all of these, one by one?
1. Cc1cccc(C)c1/C=C1\SC(=O)NC1=O [Example 235]
2. O=C1NC(=O)/C(=C/c2ccc3cc(O)ccc3c2)S1 [Example 171]
3. COc1cc(O)cc(OC)c1/C=C1\SC(=O)NC1=O [Example 234]
4. O=C1NC(=O)/C(=C/c2cc3ccccc3o2)S1 [Example 238]

104 to 105 °C
310 to 314 °C
331 to 333 °C
265 to 266 °C

Can you give me melting point for all of these, one by one?
1. COc1cc(OCc2c(F)cccc2[N+](=O)[O-])cc(OC)c1C=C1SC(=O)NC1=O [Example 237]
2. O=C1NC(=O)/C(=C/c2c(Cl)cccc2Cl)S1 [Example 229]
3. COc1cc(/C=C2\SC(=O)NC2=O)cc(I)c1O [Example 167]
4. CC(/C=C1\SC(=O)NC1=O)=C\c1ccccc1 [Example 240]

1. 255 to 256 °C
2. 152 to 154 °C
3. 256 °C
4. 203 to 210 °C

----------
Give measured dimer for each item. Keep answers brief.
assay: Chemical stability of insulin formulations by SEC (size exclusion chromatography); type: physicochemical; conditions: formulated human insulin, 3 Zn2+ per hexamer; 45° C.
One number for each entry, in % formed/year.

Recorded results for 3 compounds are shown here.
>>> reported("O=C(O)c1cc2cc(Br)ccc2cc1O [Example 533, 7-bromo-3-hydroxy-2-naphthoic acid]")
26.3
>>> reported("CCN(CC)c1ccc(/C=C2\\SC(=O)NC2=O)cc1")
29.2
>>> reported("O=C(O)/C=C/c1ccc(/C=C2\\SC(=O)NC2=O)cc1")
21.2

Give the value of dimer reported for the following: `O=C(O)COc1cccc(/C=C2\SC(=O)NC2=O)c1`
23.4

----------
biological target: metal site of insulin R6 hexamers (Homo sapiens); construct: human insulin comprising additional amino acids, i.e. more than 51 amino acids; assay: TZD-assay: fluorescence based displacement assay; assay type: binding; conditions: measured separately; read-out: KTZD
property-name: pKd
Numbers only, as −log10 of the molar value.

Give the value of pKd reported for the following: CN(C)c1ccc(/C=C2\SC(=O)NC2=O)cc1 [TZD, reference compound]
6.64

----------
molecular target: metal site of insulin R6 hexamers (Homo sapiens, UniProt P01308); construct: human insulin comprising additional amino acids, i.e. more than 51 amino acids; assay: TZD-assay: fluorescence based displacement assay; assay type: binding; settings: affinity towards the zinc site, TZD-assay; read-out: Kd(app)
Sequence (P01308 25-54 limits assumed): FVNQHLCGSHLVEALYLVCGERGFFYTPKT
Sequence (P01308 90-110 limits assumed): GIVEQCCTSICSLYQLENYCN
Flag rule - Kd less than 80 nM flags True; the remaining entries get False.

Completed entries (count: 7):
>>> classification("Fc1ccc(Cn2c3ccccc3c3cc(-c4nn[nH]n4)ccc32)c(F)c1")
"True"
>>> classification("O=C(O)/C=C/c1ccc(/C=C2\\SC(=O)NC2=O)cc1")
"True"
>>> classification("O=C(O)c1cc2cc(Br)ccc2cc1O [Example 533, 7-bromo-3-hydroxy-2-naphthoic acid]")
"False"
>>> classification("O=C(O)c1ccc(Cn2c3ccccc3c3cc(-c4nn[nH]n4)ccc32)cc1")
"False"
>>> classification("c1ccc2[nH]nnc2c1")
"False"
>>> classification("O=C1NC(=O)/C(=C/c2cccc3ccccc23)S1")
"True"
>>> classification("O=C(O)COc1ccc(/C=C2\\SC(=O)NC2=O)c2ccccc12")
"True"

Here's the next entry for you.
Kd strictly < 80 nM for this compound? `Cc1ccccc1Cn1c2ccccc2c2cc(-c3nn[nH]n3)ccc21`
True

----------
assay: Chemical stability of insulin formulations by SEC (size exclusion chromatography); assay type: physicochemical; details: formulated human insulin, 3 Zn2+ per hexamer; 25° C.
property-name: dimer (% formed/year)
Numbers only, in % formed/year.

Recorded results for 3 molecules are shown here.
>>> reported("O=C(O)/C=C/c1ccc(/C=C2\\SC(=O)NC2=O)cc1")
1.09
>>> reported("CCN(CC)c1ccc(/C=C2\\SC(=O)NC2=O)cc1")
2.24
>>> reported("O=C(O)c1cc2cc(Br)ccc2cc1O [Example 533, 7-bromo-3-hydroxy-2-naphthoic acid]")
1.61

# context switch: different molecule, same dimer
Give the value of dimer reported for the following: `O=C(O)COc1cccc(/C=C2\SC(=O)NC2=O)c1`
1.20
